test.method.notes: Selection of a solvent for the active component: solubility judged by naked eye
Format: physicochemical
reported.conditions: 0.5% Polysorbate 20, 80 °C, aqueous with cosolvent or surfactant or cyclodextrin, thermodynamic from solid, solvent 0.5% Polysorbate 20; KRN7000 100 μg/ml; read-out: Judgment of solubility (by naked eye)
measurement.kind: solubility at 20 min

I'd like to know its solubility at 20 min. The compound in question is CCCCCCCCCCCCCCCCCCCCCCCCCC(=O)N[C@@H](CO[C@H]1O[C@H](CO)[C@H](O)[C@H](O)[C@H]1O)[C@H](O)[C@H](O)CCCCCCCCCCCCCC [KRN7000]
> 100 µg/mL

* * *

test.method.notes: Selection of a solvent for the active component: solubility judged by naked eye
Type: physicochemical
reported.conditions: Macrogol 400, 80 °C, organic solvent or mixture, thermodynamic from solid, solvent Macrogol 400; KRN7000 10 μg/ml; read-out: Judgment of solubility (by naked eye)
measurement.kind: solubility at 20 min

I'd like to know its solubility at 20 min. The compound in question is "CCCCCCCCCCCCCCCCCCCCCCCCCC(=O)N[C@@H](CO[C@H]1O[C@H](CO)[C@H](O)[C@H](O)[C@H]1O)[C@H](O)[C@H](O)CCCCCCCCCCCCCC"
> 10 µg/mL

* * *

test.method.notes: Selection of a solvent for the active component: solubility judged by naked eye
Assay type: physicochemical
reported.conditions: 0.5% Polyoxamer 188, 80 °C, aqueous with cosolvent or surfactant or cyclodextrin, thermodynamic from solid, solvent 0.5% Polyoxamer 188; KRN7000 10 μg/ml; read-out: Judgment of solubility (by naked eye)
Procedure: First, 1 mg of the active component (KRN7000) was weighed and stirred in 100 ml of a variety of solvents (Table 3) in a heated bath to 80° C. for 20 minutes in order to form a solution having a concentration of 10 μg/ml. With respect to the solvents which were judged to have successfully dissolved 10 μg/ml of the active component, dissolution was further tried in the same manner as above in order to form a solution having a concentration of 100 μg/ml. […]
measurement.kind: solubility at 20 min

I'd like to know its solubility at 20 min. The molecule in question is CCCCCCCCCCCCCCCCCCCCCCCCCC(=O)N[C@@H](CO[C@H]1O[C@H](CO)[C@H](O)[C@H](O)[C@H]1O)[C@H](O)[C@H](O)CCCCCCCCCCCCCC [KRN7000]
< 10 µg/mL

* * *

test.method.notes: Selection of a solvent for the active component: solubility judged by naked eye
Assay type: physicochemical
reported.conditions: 0.5% HCO 60, 80 °C, aqueous with cosolvent or surfactant or cyclodextrin, thermodynamic from solid, solvent 0.5% HCO 60; KRN7000 10 μg/ml; read-out: Judgment of solubility (by naked eye)
Procedure: First, 1 mg of the active component (KRN7000) was weighed and stirred in 100 ml of a variety of solvents (Table 3) in a heated bath to 80° C. for 20 minutes in order to form a solution having a concentration of 10 μg/ml. With respect to the solvents which were judged to have successfully dissolved 10 μg/ml of the active component, dissolution was further tried in the same manner as above in order to form a solution having a concentration of 100 μg/ml. […]
measurement.kind: solubility at 20 min

I'd like to know its solubility at 20 min. The compound in question is CCCCCCCCCCCCCCCCCCCCCCCCCC(=O)N[C@@H](CO[C@H]1O[C@H](CO)[C@H](O)[C@H](O)[C@H]1O)[C@H](O)[C@H](O)CCCCCCCCCCCCCC [KRN7000]
< 10 µg/mL
